So I've got a bunch of binders here, and I need their FOB values.
# SYSTEM_UNDER_TEST: T1, cyno IL-12RB1 with C-terminal FLAG tag, transiently expressed on HEK-293T cells (cyno, UniProt A0A2K5VWV1 24-662)
# T1 construct: whole, on cells
# ASSAY_EXPLANATION: FACS, periplasmic extract, HEK-293T
Answers are plain numbers, in fold.

These recorded examples may help you get a feel for the data.
- BINDER: "VHH154B1 (VHH) VHH: QVQLQESGGGLVQVGDSLRLSCVASGRIFGVNTRAWYRQAPGNQRELVAQISSGGNINYADSVKGRFTISMDKFTDTVYLQMNSLKPEDTAIYRCAAHRQHPYADVWGQGTQVSVSS"
  FOB (fold): 21
- BINDER: "VHH137B1 (VHH) VHH: QVQLVESGGGLVQAGGSLRLSCAASGRTFRTYAMGWFRQAPGKDREVVGIAAWKVASTYYVDYGDSVRGRFTISRDDAKSTVYLQMNNLMPEDTAVYYCAAGAFRTDWRSYAYWGQGTQVTVSS"
  FOB (fold): 152
- BINDER: "VHH50B1 (VHH) VHH: QVQLVESGGGLVQAGGSLRLSCAASGRAFSRYSMGWFRQAPGKEREFVAANYWSNGWTDYADTVKGRFSISRDNAKNTVYLQMNSLKPEDTAVYYCAGRSSSIPSADVVGYDYWGQGTQVTVSS"
  FOB (fold): 106

Switching to the query record.
Name the reported FOB value associated with the binder VHH97B1 (VHH) VHH: QVQLVESGGGLAQAGGSLRLSCAASGRTFSNDDMAWFRQAPGKEREFVAHIDRNAASTNYADSVKGRFTISRDNAKNTVYLQMTRLKPEDTAVYYCAADPDHFGTTWYQQYTYWGPGTQVTVSS 99

The reported numbers originate from patent US20250019450A1.
